# Tested on: HeLa
# test description: Inhibition of cell growth by colorimetric SRB assay, HELA
# Type: cell-based
# test parameters: Homo sapiens; HELA; 48 hours exposure
value type: GI50 (nM)
Please respond with the number in nM and leave the unit unwritten.

Worked set:
compound | test value
C/C=C\[C@H](C)[C@H]1OC1(C)[C@@H](O[Si](C)(C)C(C)(C)C)[C@@H](COC(C)=O)C(=O)[C@H](COC(C)=O)[C@@H](CC(=O)CC)OC(C)=O (stereo partly drawn) [Compound 45] | 16300
C=C(C(=O)[C@H](COC(C)=O)[C@H](O)C1(C)O[C@@H]1[C@@H](C)/C=C\C)[C@@H](O)CC(=O)CC (stereo partly drawn) [Compound 1] | 1990

Next:
Recorded result, C/C=C\[C@H](C)[C@H]1O[C@@]1(C)[C@@H](O)[C@@H](CO)C(=O)[C@@H](CO)[C@@H](O)CC(=O)CC [3c + 4c] , GI50: 620
